Source: paper PMC4738272

# System: HepG2/C3A
# protocol.description: Human Serum Albumin quantification (ELISA), liver fraction of 4-organ system
# Type: cell-based
# condition.summary: 4-organ co-culture under flow, 48 h drug treatment, vs control; DOX 5 μM, ATR 100 μM, VPA 2 mM, APAP 5 mM, AMAP 5 mM

| line.notation | HSA (albumin) production, increase |
| --- | --- |
| CC(=O)Nc1ccc(O)cc1 | not affected |
| CC(C)c1c(C(=O)Nc2ccccc2)c(-c2ccccc2)c(-c2ccc(F)cc2)n1CC[C@@H](O)C[C@@H](O)CC(=O)O | not affected |
| CC(=O)Nc1cccc(O)c1 | 23 ± 4% |
| CCCC(CCC)C(=O)O | not affected |
